Attribution: the NIST ThermoML archive (doi:10.1016/j.jct.2016.09.030)

assay: refractive index (Na D-line) (dimensionless); xn = mol fraction of the nth substance listed; conditions: 313.15 K; 100 kPa; Liquid; Standard Abbe refractometry; x1 = 0.5999
Measured Property: refractive index

{"Compound": "CCOC(=O)CCC(=O)OCC [diethyl butanedioate] + CC(C)CO", "Result Value": 1.4037}
{"Compound": "CCCCCCCC(=O)OCC [ethyl octanoate] + CC(C)CCO", "Result Value": 1.4056}
{"Compound": "CCCCCCCC(=O)OCC [ethyl octanoate] + CC(C)CO", "Result Value": 1.403}
{"Compound": "CCOC(=O)CCC(=O)OCC [diethyl butanedioate] + CC(C)CCO", "Result Value": 1.4062}

---

Examples of molecules with documented refractive index follow.
assay: refractive index (Na D-line) (dimensionless); xn = mol fraction of the nth substance listed; details: 298.15 K; 100 kPa; Liquid; Standard Abbe refractometry; x1 = 0.5999
Measured Property: refractive index

{"Molecule": "CCOC(=O)CCC(=O)OCC [diethyl butanedioate] + CC(C)CO", "Result Value": 1.4104}
{"Molecule": "CCOC(=O)CCC(=O)OCC [diethyl butanedioate] + CC(C)CCO", "Result Value": 1.4128}
{"Molecule": "CCCCCCCC(=O)OCC [ethyl octanoate] + CC(C)CCO", "Result Value": 1.4122}
{"Molecule": "CCCCCCCC(=O)OCC [ethyl octanoate] + CC(C)CO", "Result Value": 1.4097}

---

experiment: xn = mol fraction of the nth substance listed; settings: 288.15 K; 100 kPa; Liquid; Vibrating tube method; x1 = 0.5999

{"Compound": "CCCCCCCC(=O)OCC [ethyl octanoate] + CC(C)CCO", "mass density / kg/m3": 854.63}
{"Compound": "CCCCCCCC(=O)OCC [ethyl octanoate] + CC(C)CO", "mass density / kg/m3": 854.5}
{"Compound": "CCOC(=O)CCC(=O)OCC [diethyl butanedioate] + CC(C)CCO", "mass density / kg/m3": 972.64}
{"Compound": "CCOC(=O)CCC(=O)OCC [diethyl butanedioate] + CC(C)CO", "mass density / kg/m3": 978.97}

---

Examples of compounds with documented viscosity follow.
test: xn = mol fraction of the nth substance listed; conditions: 298.15 K; 100 kPa; Liquid; Concentric cylinders viscometry; x1 = 0.5999
Measured Property: viscosity (mPa·s)

{"Compound": "CCOC(=O)CCC(=O)OCC [diethyl butanedioate] + CC(C)CO", "Result Value": 2.004}
{"Compound": "CCCCCCCC(=O)OCC [ethyl octanoate] + CC(C)CO", "Result Value": 1.447}
{"Compound": "CCOC(=O)CCC(=O)OCC [diethyl butanedioate] + CC(C)CCO", "Result Value": 2.048}
{"Compound": "CCCCCCCC(=O)OCC [ethyl octanoate] + CC(C)CCO", "Result Value": 1.518}

---

assay: refractive index (Na D-line) (dimensionless); xn = mol fraction of the nth substance listed; settings: 288.15 K; 100 kPa; Liquid; Standard Abbe refractometry; x1 = 0.5999
Measured Property: refractive index

{"Compound": "CCCCCCCC(=O)OCC [ethyl octanoate] + CC(C)CCO", "Measured Property": "refractive index", "Result Value": 1.4166}
{"Compound": "CCCCCCCC(=O)OCC [ethyl octanoate] + CC(C)CO", "Measured Property": "refractive index", "Result Value": 1.4142}
{"Compound": "CCOC(=O)CCC(=O)OCC [diethyl butanedioate] + CC(C)CCO", "Measured Property": "refractive index", "Result Value": 1.4172}
{"Compound": "CCOC(=O)CCC(=O)OCC [diethyl butanedioate] + CC(C)CO", "Measured Property": "refractive index", "Result Value": 1.4148}
